- subject.of.test: T1, human CD33 extracellular domain (human, UniProt P20138 18-259)
- T1 construct: soluble monomeric ECD; also called human CD33 ECD; hCD33
- run.description: SPR, Fab captured, 37C;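 further: surface plasmon resonance with Fabs captured on anti-Fab surface, soluble monomeric CD33 as analyte at several concentrations, double-referenced 1:1 model fit, KD as koff/kon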
measured.quantity: pKd
# pKd = -log10(concentration in molar units)

Study these solved cases before continuing.
- binder: "ADI-11835 Fab (Fab, V domains shown, Fab fragment; also called Ab10; I35) VH: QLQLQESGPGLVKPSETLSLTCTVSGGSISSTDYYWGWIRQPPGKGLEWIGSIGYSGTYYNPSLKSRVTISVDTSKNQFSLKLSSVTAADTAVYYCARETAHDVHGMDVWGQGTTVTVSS VL: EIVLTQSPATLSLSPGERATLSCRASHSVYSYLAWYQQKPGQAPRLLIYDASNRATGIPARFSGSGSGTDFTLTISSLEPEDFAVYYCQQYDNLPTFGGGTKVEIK"
  pKd: 9.28
- binder: "ADI-10177 Fab (Fab, V domains shown, Fab fragment; also called Ab2) VH: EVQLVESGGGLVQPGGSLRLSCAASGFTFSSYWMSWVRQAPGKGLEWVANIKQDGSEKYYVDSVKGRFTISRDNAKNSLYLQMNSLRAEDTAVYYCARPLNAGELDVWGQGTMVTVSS VL: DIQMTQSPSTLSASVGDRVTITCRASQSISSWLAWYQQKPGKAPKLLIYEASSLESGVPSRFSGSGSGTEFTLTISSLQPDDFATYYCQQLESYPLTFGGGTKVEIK"
  pKd: 7.94
- binder: "ADI-11776 Fab (Fab, V domains shown, Fab fragment; also called Ab3; H76) VH: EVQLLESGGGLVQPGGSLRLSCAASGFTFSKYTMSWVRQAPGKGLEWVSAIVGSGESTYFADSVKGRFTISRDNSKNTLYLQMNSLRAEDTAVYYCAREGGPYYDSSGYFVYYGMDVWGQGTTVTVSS VL: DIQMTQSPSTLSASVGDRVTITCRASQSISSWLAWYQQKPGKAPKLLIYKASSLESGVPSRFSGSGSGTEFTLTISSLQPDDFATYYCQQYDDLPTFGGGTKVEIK"
  pKd: 9.11

// next entry
Prompt line: Provide pKd value for the following binder: ADI-11839 Fab (Fab, V domains shown, Fab fragment; also called Ab28) VH: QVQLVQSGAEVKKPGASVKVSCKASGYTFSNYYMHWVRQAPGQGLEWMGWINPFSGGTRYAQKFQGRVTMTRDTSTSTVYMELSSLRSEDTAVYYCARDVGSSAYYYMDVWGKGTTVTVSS VL: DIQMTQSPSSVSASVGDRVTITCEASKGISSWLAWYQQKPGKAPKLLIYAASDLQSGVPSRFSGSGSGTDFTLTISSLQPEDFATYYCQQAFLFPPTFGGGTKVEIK
Response line: 7.73
